Experiment: galactose survival enhancers in mitochondrial complex I cybrids – cell-based, galactose medium, ATP luminescence, primary screen (AID 1645843);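 also: positive z means more ATP and so rescue of galactose-driven cybrid death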
Settings: complex I mutant cybrid cells, 72 h
The source made the active and inactive calls.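 The calls were made as follows: active = z-score of at least 1.8 in each of two replicates, scored against plate mean and spread of sample wells; inactive = the rest.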
Outcome codes: active, inactive

| Compound | Category Label |
| --- | --- |
| CC1COc2c(C3(N)CC3)c(F)cc3c(=O)c(C(=O)O)cn1c23 (stereo unspecified) | inactive |
| O=C1c2ccccc2C(=O)c2c(NCCc3ccc(O)cc3)ccc(NCCc3ccc(O)cc3)c21 | inactive |
| COC1CN(Cc2cn(C)c3ccccc23)CC(=O)N(Cc2ccccc2)C1 (stereo unspecified) | inactive |
| CCOC(=O)C(CCc1ccccc1)NC(C)C(=O)N1C(C(=O)O)CC2CCCC21 (stereo unspecified) | inactive |
| CC[C@H](C)[C@H](N)C(=O)N1CCC(Cn2cc(-c3ccc(F)cc3)nn2)CC1 | inactive |
| COc1ccc(CN2C[C@@H](CN3CCOCC3)C[C@@H](C(=O)NCC(C)C)C2)cc1OC | inactive |
| N[C@@H](Cc1ccc(O)c(I)c1)C(=O)O | inactive |
| O=c1c2c3c(sc2ncn1CCF)CCCCC3 | inactive |
| NC(C(=O)NC1C(=O)N2C(C(=O)O)=C(Cl)CSC12)c1ccccc1 (stereo unspecified) | inactive |
| COc1cc(N)c(Cl)cc1C(=O)OCCN1CCCCC1 | inactive |
| CCc1nc(NC(=O)NCCc2nc(-c3ccc(C)cc3)no2)nn1C | active |

====

Test: P. berghei load reduction in hepatocytes – cell-based, HepG2, luciferase luminescence, HepG2 viability, primary screen (AID 624349);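 also: 100% = mean of DMSO negative control wells on the same plate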
Details: P. berghei liver stage in HepG2, luciferase luminescence, concentration not given here; stronger effect = lower value

| Compound | Reading Unit | parasite load remaining |
| --- | --- | --- |
| CC(C)n1cnc2c(NCc3ccccc3)nc(NCCCO)nc21 | % | 34.6 |
| O=C1Nc2ccc(Cl)cc2/C1=C/c1cc(Cl)c(O)c(Cl)c1 | % | 28.5 |
| CNc1cc2c(Nc3cccc(Br)c3)ncnc2cn1 | % | 49.2 |
| CC[C@H](C)[C@H]1O[C@]2(CC[C@@H]1C)C[C@@H]1C[C@@H](C/C=C(\C)C(O[C@H]3C[C@H](OC)[C@@H](O[C@H]4C[C@H](OC)[C@@H](O)[C@H](C)O4)[C@H](C)O3)[C@@H](C)/C=C/C=C3\CO[C@@H]4[C@H](O)C(C)=C[C@@H](C(=O)O1)[C@]34O)O2 (stereo partly drawn) | % | 93.7 |
| Nc1c(O)cccc1C(=O)CC(N)C(=O)O (stereo not drawn) | % | 62.4 |
| Nc1nc(=O)n([C@@H]2CS[C@H](CO)O2)cc1F | % | 56.6 |
| Nc1nc(O)c(C2=C3C(=Nc4ccccc43)C(=O)NCC2)[nH]1 | % | 45.8 |
| C[C@]12CCC(=O)C[C@H]1CC(=O)[C@@H]1[C@@H]2CC(=O)[C@]2(C)CCC[C@@H]12 (tested in a mixture with another compound) | % | 107 |

====

Experiment: viability loss with induced miR-34 in A549 – imaging, A549 dox-inducible miR-34, nuclei and caspase counts, primary screen (AID 1347080)
Conditions: A549 miR-34 inducible, Hoechst nuclei count, 48 h; measured here: relative caspase fold change +Dox/-Dox

| Compound | fold change |
| --- | --- |
| Cc1oc(S(=O)(=O)N2CCCCC2)cc1NC(=O)Nc1ccccc1 | 1.24 |
| COc1ccc(C(=O)N2CCN(C(=O)c3ccc4sc(N)nc4c3)CC2)cc1 | 0.875 |
| CCCCC/C=C\C/C=C\C/C=C\CC1OC1CCCC(=O)O (stereo unspecified) | 1.34 |
| COC(c1ccccc1)(c1ccccc1)C(Oc1nc(C)cc(C)n1)C(=O)O (stereo unspecified) | 0.955 |
| Brc1ccc([C@H]2CN3CCSC3=N2)cc1 | 1.3 |
| Nc1ncnc2c1ncn2C1O[C@H](CO)[C@@H](O)[C@@H]1O (stereo partly specified) | 1.24 |
| COc1ccc(CCNCC(O)COc2cccc(C)c2)cc1OC (stereo unspecified) | 0.555 |
| CCCCCOC(=O)Nc1nc(=O)n(C2OC(C)C(O)C2O)cc1F (stereo unspecified) | 1.03 |
| COc1cc2c(cc1O)CC[C@@H]1[C@H]2CC[C@]2(C)C(O)CC[C@@H]12 (stereo partly specified) | 0.703 |
| NC(=S)NN=Cc1ncccc1N | 0.619 |
| CCn1c2ccccc2c2cc(Nc3ccnc(NCCCN4CCOCC4)n3)ccc21 | 0.454 |

====

Test: viability loss with induced miR-34 in A549 – imaging, A549 dox-inducible miR-34, nuclei and caspase counts, primary screen (AID 1347080)
Conditions: A549 miR-34 inducible, Hoechst nuclei count, 48 h; measured here: total cells without miR-34 induction
Returns one of 1 or -1; 1 when cell count is >= 8000.

| Molecule | Category Label |
| --- | --- |
| N[C@H](C(=O)O)[C@H](O)C(=O)O | 1 |
| OCC1OC(O[C@]2(CCl)OC(CCl)C(O)C2O)C(O)C(O)C1Cl (some centres undefined) | 1 |
| O=C(O)Cc1c[nH]c2ccc(O)cc12 | 1 |
| CCCCCCCCCC[Si](C)(C)CCC(=O)NC(Cc1ccc(C)cc1)c1ccccc1 (centres undefined) | 1 |
| COc1ccccc1-c1cc(Nc2cccc(CS(N)(=O)=O)c2)ncn1 | -1 |
| C#C[C@@]1(O)CC[C@H]2[C@@H]3CCc4cc(OC)ccc4[C@@H]3CC[C@@]21C | 1 |
| CC[C@H]1[C@@H]2C=C[C@@H]3[C@H]4C/C=C\C(=O)NCCC[C@@H]5NC(=O)C(=C5O)C(=O)CC[C@@H]4C[C@@H]3[C@H]2C[C@H]1C | -1 |
| CCC1(O)CC2CN(CCc3c([nH]c4ccccc34)[C@@](C(=O)OC)(c3cc4c(cc3OC)N(C)C3[C@]45CCN4CC=C[C@@](CC)([C@@H](OC(C)=O)[C@]3(O)C(=O)OC)[C@H]45)C2)C1 (some centres undefined) | -1 |
| CCCCN(Cc1ccc(C(=O)NO)cc1)C(=O)Nc1ccccc1 | -1 |
| CCN(CC)C(=O)C(C#N)=Cc1cc(O)c(O)c([N+](=O)[O-])c1 | -1 |
| Nc1nc(=O)n([C@@H]2CS[C@H](CO)O2)cc1F | 1 |
| COc1ccc(NS(=O)(=O)c2sc3ccc(Cl)cc3c2C)cc1N1CCNCC1 | -1 |
| COc1cc(C(O)CO)ccc1O (centres undefined) | 1 |
| COc1cc2ncnc(Sc3nnc(C)s3)c2cc1OC | -1 |
| NC(=O)c1ncn(C2OC(CO)C(O)C2O)c1N (centres undefined) | 1 |
| CCCCC/C=C\C/C=C\C/C=C\C/C=C\CCCC(=O)O[C@@H](CO)COC(=O)CCCCCCCCCCCCCCCCC | -1 |

====

Test: viability loss with induced miR-34 in A549 – imaging, A549 dox-inducible miR-34, nuclei and caspase counts, primary screen (AID 1347080)
Conditions: A549 miR-34 inducible, Hoechst nuclei count, 48 h; stronger effect = lower value; cell number ratio, induced over uninduced
Reported fold change values for a set of compounds

| Compound | fold change |
| --- | --- |
| CCn1cnc(NC(=O)N(C)Cc2ccc(OC)cc2)n1 | 0.869 |
| CC(C)N(CC1OC(n2cnc3c(N)ncnc32)C(O)C1O)C1CC(CCc2nc3ccc(C(C)(C)C)cc3[nH]2)C1 (stereo not given) | 0.923 |
| O=S(=O)(O)c1cccc2cccc(Nc3ccccc3)c12 | 0.946 |
| Cc1cc(Cn2cnc3c2C[C@@H](C(=O)O)N(C(=O)C(c2ccccc2)c2ccccc2)C3)ccc1N | 1.01 |
| CC(C)(C)C(=O)Nc1ccc2c(c1)CC(=O)N2 | 0.817 |
| CC(C)(C)CC(C)(C)c1ccc(OCOCCOCCO)c(Cc2cc(C(C)(C)CC(C)(C)C)cc(Cc3cc(C(C)(C)CC(C)(C)C)ccc3OCOCCOCCO)c2OCOCCOCCO)c1 | 0.877 |
| Cc1ccc(NC(=O)CCCCCC(=O)Nc2ccccc2N)cc1 | 1.01 |
| CCCCCCCCCCCCCCCCCCc1ccc(C(=O)/C=C/C(=O)O)cc1 | 0.918 |
| O=C(Nc1cc(C(F)(F)F)ccc1N1CCCCC1)c1ccncc1 | 0.916 |
| c1cc(-c2nc(Cc3ccsc3)no2)c2nccnc2c1 | 0.89 |

====

Assay: rescue of PC12 cells from polyQ htt toxicity – LDH release (AID 1610)
Settings: PC12 mutant huntingtin toxicity, final LDH at 4 uM, stronger effect = lower value
Inconclusive results are not listed.

| Compound | normalised LDH release |
| --- | --- |
| C=C1C(=O)OC2C1CCC1(C)CCC=C(C)C21 (centres undefined) | 0.89 |
| CC(Cc1ccc(O)c(O)c1)C(C)Cc1ccc(O)c(O)c1 (centres undefined) | 0.415 |
| CC[C@@]1(O)C[C@H](OC2CC(N(C)C)C(OC3CC(O)C(OC4CCC(=O)C(C)O4)C(C)O3)C(C)O2)c2c(cc3c(c2O)C(=O)c2c(O)cccc2C3=O)[C@H]1C(=O)OC (some centres undefined) | 0.363 |
| CCCCC(=O)OC1(C(=O)CO)C(C)CC2C3CCC4=CC(=O)C=CC4(C)[C@@]3(F)[C@@H](O)CC21C (some centres undefined) | 0.899 |
